# Target: PAC1-PAC2 complex (Homo sapiens) (UniProt O95456+Q969U7)
# Assay details: Inhibition of N-terminal mKG-labeled PAC1/C-terminal mKG-labeled PAC2 (unknown origin) protein-protein interaction at 10 uM preincubated for 1 hr with protein followed by another protein addition and measured after 17 hrs by fluorescence based protein-fragment complementation assay relative to control
# Assay type: protein-complex assay
Measurement label: inhibition (%)

Structure string	Reported value
COc1c(C)c(OC(=O)c2ccc(Oc3cccc(C(=O)Oc4c(C)c(C)c(C(=O)Oc5c(C)c(C)c(C(=O)O)c(OC)c5C)c(OC)c4C)c3)cc2)c(C)c(C)c1C(=O)O	98
COc1c(C)c(OC(=O)c2c(C)c(C)c(OC/C=C/COc3c(C)c(C)c(C(=O)Oc4c(C)c(C)c(C(=O)O)c(OC)c4C)c(OC)c3C)c(C)c2OC)c(C)c(C)c1C(=O)O	68

1 = COCOC(=O)c1c(C)c(C)c(OC(=O)c2c(C)c(C)c(OC(=O)c3c(C)c(C(=O)Oc4c(C)c(C)c(C(=O)Oc5c(C)c(C)c(C(=O)OCOC)c(OC)c5C)c(OC)c4C)c(OC)c(C)c3OC)c(C)c2OC)c(C)c1OC
2 = COc1c(C)c(OC(=O)c2ccc(Oc3cccc(C(=O)Oc4c(C)c(C)c(C(=O)Oc5c(C)c(C)c(C(=O)O)c(OC)c5C)c(OC)c4C)c3C)c(C)c2)c(C)c(C)c1C(=O)O
3 = COc1c(C)c(OC(=O)c2c(C)c(C)c(OC[C@@H]3OC(=O)O[C@H]3COc3c(C)c(C)c(C(=O)Oc4c(C)c(C)c(C(=O)O)c(OC)c4C)c(OC)c3C)c(C)c2OC)c(C)c(C)c1C(=O)O
Input line: Would you mind ranking these compounds by ascending inhibition? Ranked list of labels, please, in the requested order.
Output line: 1, 3, 2

###

# Target: Proteasome assembly chaperone 3 (Homo sapiens)
# Assay details: Inhibition of N-terminal mKG-labeled PAC3/C-terminal mKG-labeled PAC3 homodimer (unknown origin) protein-protein interaction at 0.1 uM preincubated for 1 hr with protein followed by another protein addition and measured after 17 hrs by fluorescence based protein-fragment complementation assay relative to control
Measurement label: inhibition (%)

Example compounds with recorded inhibition:
Structure string	Reported value
COc1c(C)c(OC(=O)c2c(C)c(C)c(OC[C@H](O)[C@@H](O)COc3c(C)c(C)c(C(=O)Oc4c(C)c(C)c(C(=O)O)c(OC)c4C)c(OC)c3C)c(C)c2OC)c(C)c(C)c1C(=O)O	0
COc1c(C)c(OC(=O)c2ccc(Oc3cccc(C(=O)Oc4c(C)c(C)c(C(=O)Oc5c(C)c(C)c(C(=O)O)c(OC)c5C)c(OC)c4C)c3C)c(C)c2)c(C)c(C)c1C(=O)O	19
COc1c(C)c(OC(=O)c2ccc(Oc3cccc(C(=O)Oc4c(C)c(C)c(C(=O)Oc5c(C)c(C)c(C(=O)O)c(OC)c5C)c(OC)c4C)c3)cc2)c(C)c(C)c1C(=O)O	7
COc1c(C)c(OC(=O)c2c(C)c(C)c(OCc3cccc(COc4c(C)c(C)c(C(=O)Oc5c(C)c(C)c(C(=O)O)c(OC)c5C)c(OC)c4C)n3)c(C)c2OC)c(C)c(C)c1C(=O)O	18
COc1c(C)c(OC(=O)c2c(C)c(C)c(OC(=O)c3c(C)c(C(=O)Oc4c(C)c(C)c(C(=O)Oc5c(C)c(C)c(C(=O)O)c(OC)c5C)c(OC)c4C)c(OC)c(C)c3OC)c(C)c2OC)c(C)c(C)c1C(=O)O	29
COc1c(C)c(O)c(C)c(C)c1C(=O)Oc1c(C)c(C)c(C(=O)O)c(OC)c1C	11

P = COc1c(C)c(OC(=O)c2c(C)c(C)c(OC(=O)c3c(C)c(C(=O)Oc4c(C)c(C)c(C(=O)Oc5c(C)c(C)c(C(=O)O)c(OC)c5C)c(OC)c4C)c(O)c(C)c3O)c(C)c2OC)c(C)c(C)c1C(=O)O
Q = COc1c(C)c(OC(=O)c2c(C)c(C)c(OC(=O)c3c(C)c(Oc4c(C)c(C)c(C(=O)Oc5c(C)c(C)c(C(=O)O)c(OC)c5C)c(OC)c4C)c(O)c(C)c3O)c(C)c2OC)c(C)c(C)c1C(=O)O
R = COCOC(=O)c1c(C)c(C)c(OC(=O)c2c(C)c(C)c(OCc3cccc(COc4c(C)c(C)c(C(=O)Oc5c(C)c(C)c(C(=O)OCOC)c(OC)c5C)c(OC)c4C)c3Br)c(C)c2OC)c(C)c1OC
S = COCOC(=O)c1c(C)c(C)c(OC(=O)c2c(C)c(C)c(OC(=O)c3c(C)c(C(=O)Oc4c(C)c(C)c(C(=O)Oc5c(C)c(C)c(C(=O)OCOC)c(OC)c5C)c(OC)c4C)c(OC)c(C)c3OC)c(C)c2OC)c(C)c1OC
Input line: # desc sort on inhibition across 4 compounds Ranked list of labels, please, in the requested order.
Output line: Q, S, P, R
(Q: 85%, S: 12%, P: 4%, R: 0%)
